Origin of measurements: patent US20190241669A1

Biological target: T1, cynomolgus monkey BCMA (cynomolgus monkey, UniProt A0A2K5UD97 1-53)
T1 construct: Soluble analyte in SPR; construct not described; also called cyBCMA; Cyno BCMA
T1 sequence (A0A2K5UD97 entry or part of it): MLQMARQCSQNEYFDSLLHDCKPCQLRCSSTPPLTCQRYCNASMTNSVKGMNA
Experiment: SPR, IgG on chip, cyBCMA analyte, 37C
As shown below, each of these binders has a reported T½ value.
Number in min, nothing else.

Study these solved cases before continuing.
L3.PY/L3.KY/H2.LT (antibody, V domains shown, IgG) VH: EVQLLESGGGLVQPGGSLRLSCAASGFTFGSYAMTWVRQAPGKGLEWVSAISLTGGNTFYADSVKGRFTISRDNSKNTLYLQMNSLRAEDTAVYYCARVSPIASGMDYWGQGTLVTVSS VL: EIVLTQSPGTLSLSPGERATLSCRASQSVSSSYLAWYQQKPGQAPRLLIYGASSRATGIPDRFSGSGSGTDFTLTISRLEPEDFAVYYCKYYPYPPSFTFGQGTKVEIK :: 4.98
L3.PY/L1.AH/H3.TAQ (antibody, V domains shown, IgG) VH: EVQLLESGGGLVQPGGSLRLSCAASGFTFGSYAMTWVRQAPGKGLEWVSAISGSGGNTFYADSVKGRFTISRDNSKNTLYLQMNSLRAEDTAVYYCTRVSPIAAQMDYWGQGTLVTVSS VL: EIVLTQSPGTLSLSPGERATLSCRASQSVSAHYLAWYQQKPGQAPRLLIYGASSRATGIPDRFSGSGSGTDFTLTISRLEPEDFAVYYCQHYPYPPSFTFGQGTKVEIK :: 3.83
L3.PY/L3.KY/H2.HA (antibody, V domains shown, IgG) VH: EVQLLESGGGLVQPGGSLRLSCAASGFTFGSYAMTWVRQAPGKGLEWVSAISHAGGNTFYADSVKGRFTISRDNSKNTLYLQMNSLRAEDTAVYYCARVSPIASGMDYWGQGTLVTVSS VL: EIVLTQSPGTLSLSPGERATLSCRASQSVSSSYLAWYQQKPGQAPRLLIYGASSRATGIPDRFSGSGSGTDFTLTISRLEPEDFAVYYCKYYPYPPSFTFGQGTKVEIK :: 3.63

Ask: // T½ lookup, key: L3.PY/L1.PH/H2.QR (antibody, V domains shown, IgG) VH: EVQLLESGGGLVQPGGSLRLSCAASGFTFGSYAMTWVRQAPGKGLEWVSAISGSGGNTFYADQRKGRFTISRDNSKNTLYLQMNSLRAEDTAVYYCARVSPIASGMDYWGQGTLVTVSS VL: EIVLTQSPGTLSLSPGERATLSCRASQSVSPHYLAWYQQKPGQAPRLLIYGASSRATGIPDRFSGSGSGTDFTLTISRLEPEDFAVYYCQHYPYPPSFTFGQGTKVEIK
Reply: 2.65

Ask: Item under review: L3.PY/L1.FF/H2.DY (antibody, V domains shown, IgG) VH: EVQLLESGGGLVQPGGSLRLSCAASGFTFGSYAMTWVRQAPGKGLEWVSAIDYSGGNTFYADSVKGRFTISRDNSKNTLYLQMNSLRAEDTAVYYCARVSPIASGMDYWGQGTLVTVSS VL: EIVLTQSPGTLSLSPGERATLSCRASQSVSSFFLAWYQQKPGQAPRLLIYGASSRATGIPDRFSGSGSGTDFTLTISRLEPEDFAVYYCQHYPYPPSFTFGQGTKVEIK . Reported T½?
Reply: 2.31

Ask: Need T½, item L3.PY/L3.KY/H2.DY (antibody, V domains shown, IgG) VH: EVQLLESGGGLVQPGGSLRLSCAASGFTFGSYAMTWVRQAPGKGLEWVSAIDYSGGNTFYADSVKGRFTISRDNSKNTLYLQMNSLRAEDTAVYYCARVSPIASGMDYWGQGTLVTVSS VL: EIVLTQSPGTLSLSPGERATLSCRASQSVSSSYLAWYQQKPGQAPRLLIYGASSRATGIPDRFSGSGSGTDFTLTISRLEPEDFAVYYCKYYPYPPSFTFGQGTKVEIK
Reply: 4.75
